Provenance of the data: patent US20160244436A1

# experimentalTarget: recombinant CYP-17 (Homo sapiens, UniProt P05093)
# Sequence (P05093 whole entry, species assumed): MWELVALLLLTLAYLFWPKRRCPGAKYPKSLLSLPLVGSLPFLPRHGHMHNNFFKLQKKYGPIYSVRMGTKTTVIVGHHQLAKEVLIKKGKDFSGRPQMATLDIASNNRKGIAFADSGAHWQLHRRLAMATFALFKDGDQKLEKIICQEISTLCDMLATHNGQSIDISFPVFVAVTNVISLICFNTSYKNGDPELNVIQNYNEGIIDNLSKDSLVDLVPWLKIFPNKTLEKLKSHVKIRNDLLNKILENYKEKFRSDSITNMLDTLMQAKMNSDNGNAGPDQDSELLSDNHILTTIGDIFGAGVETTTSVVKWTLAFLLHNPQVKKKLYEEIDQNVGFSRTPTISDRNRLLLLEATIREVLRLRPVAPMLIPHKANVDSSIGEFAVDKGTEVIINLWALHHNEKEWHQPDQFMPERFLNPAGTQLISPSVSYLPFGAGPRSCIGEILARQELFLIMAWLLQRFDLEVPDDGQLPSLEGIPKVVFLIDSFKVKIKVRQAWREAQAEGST
# assayNotes: Cyp17 assay: AD293 cells over-expressing recombinant CYP-17, 3H-acetic acid release from [21-3H] 17α-hydroxyl-Pregnenolone
# Procedure: Cyp17 assay protocol: AD293 cells that stably over-express recombinant CYP-17 were seeded in 96 well plates coated with poly D-lysine (15,000 cell per well) and incubated at 37° C. for 24 hours in Dulbecco's Modified Eagle Medium (DMEM) with Fetal Bovine Serum (FBS) that is stripped of hormones by charcoal treatment. […] The aqueous layer is then separated and analyzed for the presence of ^3H-acetic acid using a Perkin Elmer Topcount NXT to determine IC50s of the compounds of the disclosure.
propertyName: IC50 (nM)

Worked examples, 8 compounds total:
compound="COCCOC(=O)N1CCN(c2ccc(CO[C@H]3CO[C@](Cn4ccnc4)(c4ccccc4Cl)OC3)cc2)CC1 [Example 510014]" experimentaltarget="recombinant CYP-17 (Homo sapiens, UniProt P05093)" unitname=nM numericresult=20
compound="CC(=O)N1CCN(c2ccc(CO[C@H]3CO[C@](Cn4ccnc4)(c4ccc(Cl)cc4Cl)OC3)cc2)CC1 [Example 500015]" experimentaltarget="recombinant CYP-17 (Homo sapiens, UniProt P05093)" unitname=nM numericresult=8
compound="Clc1ccc([C@]2(Cn3ccnc3)OC[C@@H](OCc3ccc(-c4ccncc4)cc3)CO2)c(Cl)c1 [Example 500024]" experimentaltarget="recombinant CYP-17 (Homo sapiens, UniProt P05093)" unitname=nM numericresult=33
compound="O=S(=O)(CCCCl)N1CCN(c2ccc(CO[C@H]3CO[C@](Cn4ccnc4)(c4ccc(Cl)cc4Cl)OC3)cc2)CC1 [Example 500017]" experimentaltarget="recombinant CYP-17 (Homo sapiens, UniProt P05093)" unitname=nM numericresult=106
compound="CS(=O)(=O)N1CCN(c2ccc(CO[C@H]3CO[C@@](Cn4ccnc4)(c4ccccc4Cl)OC3)cc2)CC1 [Example 500013]" experimentaltarget="recombinant CYP-17 (Homo sapiens, UniProt P05093)" unitname=nM numericresult=1500
compound="O=S(=O)(c1c[nH]cn1)N1CCN(c2ccc(CO[C@H]3CO[C@](Cn4ccnc4)(c4ccc(Cl)cc4Cl)OC3)cc2)CC1 [Example 500023]" experimentaltarget="recombinant CYP-17 (Homo sapiens, UniProt P05093)" unitname=nM numericresult=67
compound="Clc1ccccc1[C@]1(Cn2ccnc2)OC[C@H](OCc2ccc(N3CCOCC3)cc2)CO1 [Example 500006]" experimentaltarget="recombinant CYP-17 (Homo sapiens, UniProt P05093)" unitname=nM numericresult=8000
compound="O=S(=O)(C1CC1)N1CCN(c2ccc(CO[C@H]3CO[C@](Cn4ccnc4)(c4ccc(Cl)cc4Cl)OC3)cc2)CC1 [Example 500018]" experimentaltarget="recombinant CYP-17 (Homo sapiens, UniProt P05093)" unitname=nM numericresult=11

1 = Clc1ccccc1[C@]1(Cn2ccnc2)OC[C@@H](OCc2ccc(-c3ccncc3)cc2)CO1 [Example 510017]
2 = CN(C)C(=O)N1CCN(c2ccc(CO[C@H]3CO[C@](Cn4ccnc4)(c4ccccc4Cl)OC3)cc2)CC1 [Example 510013]
Param pair: 1 , 2 . Output: the one whose IC50 is numerically greater. Your choice should be expressed through its label.
1

* * *

# experimentalTarget: recombinant CYP-17 (Homo sapiens, UniProt P05093)
# assayNotes: Cyp17 assay: AD293 cells over-expressing recombinant CYP-17, 3H-acetic acid release from [21-3H] 17α-hydroxyl-Pregnenolone
propertyName: IC50 (nM)

compound=CCS(=O)(=O)N1CCN(c2ccc(CO[C@H]3CO[C@](Cn4ccnc4)(c4ccc(Cl)cc4Cl)OC3)cc2)CC1 numericresult=9
compound="CC(=O)N1CCN(c2ccc(CO[C@H]3CO[C@](Cn4ccnc4)(c4ccc(Cl)cc4Cl)OC3)cc2)CC1 [drawing 112]" numericresult=8

P = CC(C)S(=O)(=O)N1CCN(c2ccc(CO[C@H]3CO[C@](Cn4ccnc4)(c4ccc(Cl)cc4Cl)OC3)cc2)CC1
Q = O=S(=O)(c1cccc(OC(F)(F)F)c1)N1CCN(c2ccc(CO[C@H]3CO[C@](Cn4ccnc4)(c4ccc(Cl)cc4Cl)OC3)cc2)CC1
Param pair: P , Q . Output: the one whose IC50 is numerically greater. Your choice should be expressed through its label.
Q
